Experiment: Pharmacokinetic parameters of i.v. tacrolimus in the presence of Q-Captisol in male Lewis rats
Type: in vivo
Conditions: male, Lewis, rat, whole blood, iv, 1 mg/kg, tacrolimus 1 mg/kg i.v., Q-Captisol Dose 0 mg/kg i.p. 30 min before
MEASUREMENT LABEL: AUC (ng·h/mL)
The reply should contain only the number, in ng·h/mL.

Noted for C=CC[C@@H]1/C=C(\C)C[C@H](C)C[C@H](OC)[C@H]2O[C@@](O)(C(=O)C(=O)N3CCCC[C@H]3C(=O)O[C@H](/C(C)=C/[C@@H]3CC[C@@H](O)[C@H](OC)C3)[C@H](C)[C@@H](O)CC1=O)[C@H](C)C[C@@H]2OC [tacrolimus] : its AUC reads 645

* * *

Experiment: Pharmacokinetic parameters of i.v. tacrolimus in the presence of Q-Captisol in male Lewis rats
Assay type: in vivo
Settings: male, Lewis, rat, whole blood, iv, 1 mg/kg, tacrolimus 1 mg/kg i.v., Q-Captisol Dose 150 mg/kg i.p. 30 min before
MEASUREMENT LABEL: Vd (L/kg)
Could you give me the number in L/kg? Just the number is fine.

Field Vd (entry "C=CC[C@@H]1/C=C(\C)C[C@H](C)C[C@H](OC)[C@H]2O[C@@](O)(C(=O)C(=O)N3CCCC[C@H]3C(=O)O[C@H](/C(C)=C/[C@@H]3CC[C@@H](O)[C@H](OC)C3)[C@H](C)[C@@H](O)CC1=O)[C@H](C)C[C@@H]2OC" ) reads 10.9

* * *

Experiment: Pharmacokinetic parameters of oral tacrolimus in the presence of Q-Captisol in healthy human volunteers
Assay type: in vivo
Conditions: male, plasma, Period 3: 1 mg oral tacrolimus after single IV infusion of 100 mg Q-Captisol, read-out: Vd
MEASUREMENT LABEL: Vd

Sure, the documented Vd for "C=CC[C@@H]1/C=C(\C)C[C@H](C)C[C@H](OC)[C@H]2O[C@@](O)(C(=O)C(=O)N3CCCC[C@H]3C(=O)O[C@H](/C(C)=C/[C@@H]3CC[C@@H](O)[C@H](OC)C3)[C@H](C)[C@@H](O)CC1=O)[C@H](C)C[C@@H]2OC" is 7.1 L/kg

* * *

Assay: Pharmacokinetic parameters of i.v. tacrolimus in the presence of Q-Captisol in male Lewis rats
Assay type: in vivo
Conditions: male, Lewis, rat, whole blood, iv, 1 mg/kg, tacrolimus 1 mg/kg i.v., Q-Captisol Dose 150 mg/kg i.p. 30 min before
MEASUREMENT LABEL: AUC (ng·h/mL)
Write the answer as a number in ng·h/mL, unit excluded.

Lab book: AUC of "C=CC[C@@H]1/C=C(\C)C[C@H](C)C[C@H](OC)[C@H]2O[C@@](O)(C(=O)C(=O)N3CCCC[C@H]3C(=O)O[C@H](/C(C)=C/[C@@H]3CC[C@@H](O)[C@H](OC)C3)[C@H](C)[C@@H](O)CC1=O)[C@H](C)C[C@@H]2OC" noted as 980

* * *

Test: Pharmacokinetic parameters of oral tacrolimus in the presence of Q-Captisol in healthy human volunteers
Assay type: in vivo
Conditions: male, plasma, Period 2: 1 mg oral tacrolimus + Q-Captisol po 100 mg three times per day Days 12-14
Method: Tacrolimus-quercetin pharmacokinetic interactions are evaluated in N=15 healthy male subjects in an open-label, three-way crossover study of i.v. or oral quercetin-sulfobutylether-7-β-cyclodextrin (Q-Captisol) administered in combination with oral tacrolimus. […] The tacrolimus concentrations in plasma are determined using validated assay methods via an LC/MS/MS analytical technique. […]
MEASUREMENT LABEL: AUC (ng·h/mL)
A number alone suffices; assume ng·h/mL.

Value of measured AUC for the entry "C=CC[C@@H]1/C=C(\C)C[C@H](C)C[C@H](OC)[C@H]2O[C@@](O)(C(=O)C(=O)N3CCCC[C@H]3C(=O)O[C@H](/C(C)=C/[C@@H]3CC[C@@H](O)[C@H](OC)C3)[C@H](C)[C@@H](O)CC1=O)[C@H](C)C[C@@H]2OC" : 65.7

* * *

Assay: Pharmacokinetic parameters of i.v. tacrolimus in the presence of Q-Captisol in male Lewis rats
Type: in vivo
Settings: male, Lewis, rat, whole blood, iv, 1 mg/kg, tacrolimus 1 mg/kg i.v., Q-Captisol Dose 300 mg/kg i.p. 30 min before
MEASUREMENT LABEL: Vd (L/kg)
Express it in L/kg; write the number only.

Recorded Vd (compound "C=CC[C@@H]1/C=C(\C)C[C@H](C)C[C@H](OC)[C@H]2O[C@@](O)(C(=O)C(=O)N3CCCC[C@H]3C(=O)O[C@H](/C(C)=C/[C@@H]3CC[C@@H](O)[C@H](OC)C3)[C@H](C)[C@@H](O)CC1=O)[C@H](C)C[C@@H]2OC" ): 8.2

* * *

Experiment: Pharmacokinetic parameters of i.v. tacrolimus in the presence of Q-Captisol in male Lewis rats
Type: in vivo
Details: male, Lewis, rat, whole blood, iv, 1 mg/kg, tacrolimus 1 mg/kg i.v., Q-Captisol Dose 25 mg/kg i.p. 30 min before
MEASUREMENT LABEL: Vd (L/kg)
Form entry: value (L/kg) — number only.

The recorded Vd for entry "C=CC[C@@H]1/C=C(\C)C[C@H](C)C[C@H](OC)[C@H]2O[C@@](O)(C(=O)C(=O)N3CCCC[C@H]3C(=O)O[C@H](/C(C)=C/[C@@H]3CC[C@@H](O)[C@H](OC)C3)[C@H](C)[C@@H](O)CC1=O)[C@H](C)C[C@@H]2OC" equals 16

* * *

Assay: Pharmacokinetic parameters of i.v. tacrolimus in the presence of Q-Captisol in male Lewis rats
Assay type: in vivo
Settings: male, Lewis, rat, whole blood, iv, 1 mg/kg, tacrolimus 1 mg/kg i.v., Q-Captisol Dose 300 mg/kg i.p. 30 min before
MEASUREMENT LABEL: Cmax (ng/mL)
Expressed in ng/mL, but write only the number.

Cmax recorded for this compound, "C=CC[C@@H]1/C=C(\C)C[C@H](C)C[C@H](OC)[C@H]2O[C@@](O)(C(=O)C(=O)N3CCCC[C@H]3C(=O)O[C@H](/C(C)=C/[C@@H]3CC[C@@H](O)[C@H](OC)C3)[C@H](C)[C@@H](O)CC1=O)[C@H](C)C[C@@H]2OC" , is 877

* * *

Test: Pharmacokinetic parameters of oral tacrolimus in the presence of Q-Captisol in healthy human volunteers
Assay type: in vivo
Settings: male, plasma, Period 1: single oral dose 1 mg tacrolimus alone
MEASUREMENT LABEL: half-life (h)
// units = h; emit number, no label

The compound identified as "C=CC[C@@H]1/C=C(\C)C[C@H](C)C[C@H](OC)[C@H]2O[C@@](O)(C(=O)C(=O)N3CCCC[C@H]3C(=O)O[C@H](/C(C)=C/[C@@H]3CC[C@@H](O)[C@H](OC)C3)[C@H](C)[C@@H](O)CC1=O)[C@H](C)C[C@@H]2OC" registered its half-life at 20.8

* * *

Assay: Pharmacokinetic parameters of oral tacrolimus in the presence of Q-Captisol in healthy human volunteers
Format: in vivo
Conditions: male, plasma, Period 2: 1 mg oral tacrolimus + Q-Captisol po 100 mg three times per day Days 12-14
MEASUREMENT LABEL: half-life
I'd appreciate it if you included the unit after the number.

molecule "C=CC[C@@H]1/C=C(\C)C[C@H](C)C[C@H](OC)[C@H]2O[C@@](O)(C(=O)C(=O)N3CCCC[C@H]3C(=O)O[C@H](/C(C)=C/[C@@H]3CC[C@@H](O)[C@H](OC)C3)[C@H](C)[C@@H](O)CC1=O)[C@H](C)C[C@@H]2OC" , half-life observed: 27.7 h

* * *

Test: Pharmacokinetic parameters of i.v. tacrolimus in the presence of Q-Captisol in male Lewis rats
Format: in vivo
Details: male, Lewis, rat, whole blood, iv, 1 mg/kg, tacrolimus 1 mg/kg i.v., Q-Captisol Dose 300 mg/kg i.p. 30 min before
MEASUREMENT LABEL: clearance (mL/min/kg)
// return numeric value only (unit: mL/min/kg, not printed)

Input "C=CC[C@@H]1/C=C(\C)C[C@H](C)C[C@H](OC)[C@H]2O[C@@](O)(C(=O)C(=O)N3CCCC[C@H]3C(=O)O[C@H](/C(C)=C/[C@@H]3CC[C@@H](O)[C@H](OC)C3)[C@H](C)[C@@H](O)CC1=O)[C@H](C)C[C@@H]2OC" . Output clearance: 12.2

* * *

Test: Pharmacokinetic parameters of i.v. tacrolimus in the presence of Q-Captisol in male Lewis rats
Type: in vivo
Details: male, Lewis, rat, whole blood, iv, 1 mg/kg, tacrolimus 1 mg/kg i.v., Q-Captisol Dose 150 mg/kg i.p. 30 min before
MEASUREMENT LABEL: Cmax

// Cmax value for "C=CC[C@@H]1/C=C(\C)C[C@H](C)C[C@H](OC)[C@H]2O[C@@](O)(C(=O)C(=O)N3CCCC[C@H]3C(=O)O[C@H](/C(C)=C/[C@@H]3CC[C@@H](O)[C@H](OC)C3)[C@H](C)[C@@H](O)CC1=O)[C@H](C)C[C@@H]2OC" : 781 ng/mL
